Reference source: the array DNA melting data of Ke et al.

Recorded Tm values for a group of substances are listed next.
- EXPERIMENT: melting temperature; UV melt of duplexes
- CONDITION_SUMMARY: sodium 0.62 M; strand 2 µM
PARAMETER: Tm (°C)

SUBSTANCE	PARAMETER	OBSERVED
TCAGTAGGCGTGACGCAGAGCTGGCGATGG+CCATCGCCAGCTCTGCGTCACGCCTACTGA ((((((((((((((((((((((((((((((+))))))))))))))))))))))))))))))	Tm	83.3
CCATCATTGTGTCTACCTCA+TGAGGTAGACACAATGATGG ((((((((((((((((((((+))))))))))))))))))))	Tm	67.3
AGCTGCAGTGGATGTGAGAA+TTCTCACATCCACTGCAGCT ((((((((((((((((((((+))))))))))))))))))))	Tm	71.3
CTTAAGATATGAGAACTTCAACTAATGTGT+ACACATTAGTTGAAGTTCTCATATCTTAAG ((((((((((((((((((((((((((((((+))))))))))))))))))))))))))))))	Tm	70.5
AAAGGTGTCGCGGAGAGTCGTGCTG+CAGCACGACTCTCCGCGACACCTTT (((((((((((((((((((((((((+)))))))))))))))))))))))))	Tm	81.2
TAGTATATCGCAGCATCATACAGGC+GCCTGTATGATGCTGCGATATACTA (((((((((((((((((((((((((+)))))))))))))))))))))))))	Tm	72.8
